assay: Single 60 mg dose of Radicut edaravone solution, oral and i.v. infusion, plasma pharmacokinetics in dogs; assay type: in vivo; conditions: male, beagle, dog, oral 60 mg compared to iv infusion, read-out: systemic bioavailability (Fabs)
quantityMeasured: bioavailability (%)

smilesRepresentation | quantityMeasured | unitAnnotation | measurement
CC1=NN(c2ccccc2)C(=O)C1 | bioavailability | % | 34

====

assay: Single dose, randomized, two-period cross-over study, oral solution 140 mg vs i.v. 60 mg, plasma pharmacokinetics; format: in vivo; conditions: both sexes, plasma, iv; human, i.v. infusion (60 mg, 60 minutes), 0.5 hrs

smilesRepresentation | concentration at 0.5 h, ng/mL
CC1=NN(c2ccccc2)C(=O)C1 | 713

====

experiment: Single 60 mg dose of Radicut edaravone solution, oral and i.v. infusion, plasma pharmacokinetics in dogs; type: in vivo; details: male, beagle, dog, oral administration 60 mg, 0.25 hrs

smilesRepresentation | unitAnnotation | concentration at […]
CC1=NN(c2ccccc2)C(=O)C1 | ng/mL | 491

====

assay: Single 60 mg dose of Radicut edaravone solution, oral and i.v. infusion, plasma pharmacokinetics in dogs; format: in vivo; details: male, beagle, dog, oral administration 60 mg

compound | Cmax (µg/mL)
CC1=NN(c2ccccc2)C(=O)C1 [edaravone, 3-methyl-1-phenyl-2-pyrazolin-5-one] | 2.31

====

Assay: Single dose, randomized, two-period cross-over study, oral solution 140 mg vs i.v. 60 mg, plasma pharmacokinetics
Assay type: in vivo
Settings: both sexes, plasma, iv; human, i.v. infusion 60 mg (60 minutes)
Method: A single dose, randomized, two-period, cross-over study was conducted in 18 healthy male and female human subjects.

compound | Tmax
CC1=NN(c2ccccc2)C(=O)C1 [edaravone, 3-methyl-1-phenyl-2-pyrazolin-5-one] | 1 h

====

experiment: Single dose, randomized, two-period cross-over study, oral solution 140 mg vs i.v. 60 mg, plasma pharmacokinetics; assay type: in vivo; details: both sexes, plasma; human, oral administration 140 mg
quantityMeasured: AUC(0-inf) (ng·h/mL)

molecule | unitAnnotation | measurement
CC1=NN(c2ccccc2)C(=O)C1 [edaravone, 3-methyl-1-phenyl-2-pyrazolin-5-one] | ng·h/mL | 2410

====

Assay: Single dose, randomized, two-period cross-over study, oral solution 140 mg vs i.v. 60 mg, plasma pharmacokinetics
Assay type: in vivo
Conditions: both sexes, plasma; human, oral administration (140 mg), 8 hrs
Method: A single dose, randomized, two-period, cross-over study was conducted in 18 healthy male and female human subjects.

molecule | concentration at 8 h / ng/mL
CC1=NN(c2ccccc2)C(=O)C1 [edaravone, 3-methyl-1-phenyl-2-pyrazolin-5-one] | 13

====

assay: Single 60 mg dose of Radicut edaravone solution, oral and i.v. infusion, plasma pharmacokinetics in dogs; format: in vivo; conditions: male, beagle, dog, oral administration 60 mg, 6 hrs

smilesRepresentation | concentration at 6 h [ng/mL]
CC1=NN(c2ccccc2)C(=O)C1 | 5

====

test: Single dose, randomized, two-period cross-over study, oral solution 140 mg vs i.v. 60 mg, plasma pharmacokinetics; format: in vivo; settings: both sexes, plasma; human, oral administration 140 mg

smilesRepresentation | Cmax, ng/mL
CC1=NN(c2ccccc2)C(=O)C1 | 2940

====

test: Single 60 mg dose of Radicut edaravone solution, oral and i.v. infusion, plasma pharmacokinetics in dogs; format: in vivo; conditions: male, beagle, dog, iv, 60 mg, i.v. infusion 60 mg (15 min)
quantityMeasured: Tmax (min)

smilesRepresentation | measurement
CC1=NN(c2ccccc2)C(=O)C1 | 15

====

test: Single dose, randomized, two-period cross-over study, oral solution 140 mg vs i.v. 60 mg, plasma pharmacokinetics; type: in vivo; conditions: both sexes, plasma, iv; human, i.v. infusion 60 mg (60 minutes)
quantityMeasured: AUC(0-inf) (ng·h/mL)

molecule | quantityMeasured | unitAnnotation | measurement
CC1=NN(c2ccccc2)C(=O)C1 [edaravone, 3-methyl-1-phenyl-2-pyrazolin-5-one] | AUC(0-inf) | ng·h/mL | 1300

====

assay: Single dose, randomized, two-period cross-over study, oral solution 140 mg vs i.v. 60 mg, plasma pharmacokinetics; assay type: in vivo; conditions: both sexes, plasma; human, oral administration (140 mg), 0.083 hrs
quantityMeasured: concentration at 0.083 h (ng/mL)

compound | quantityMeasured | measurement
CC1=NN(c2ccccc2)C(=O)C1 [edaravone, 3-methyl-1-phenyl-2-pyrazolin-5-one] | concentration at 0.083 h | 1200

====

assay: Single 60 mg dose of Radicut edaravone solution, oral and i.v. infusion, plasma pharmacokinetics in dogs; format: in vivo; conditions: male, beagle, dog, oral administration 60 mg, 4 hrs

smilesRepresentation | concentration at 4 h (µg/mL)
CC1=NN(c2ccccc2)C(=O)C1 | 0.011

====

test: Single 60 mg dose of Radicut edaravone solution, oral and i.v. infusion, plasma pharmacokinetics in dogs; format: in vivo; conditions: male, beagle, dog, oral administration 60 mg, 0.083 hrs
quantityMeasured: concentration at 0.083 h (ng/mL)

molecule | quantityMeasured | measurement
CC1=NN(c2ccccc2)C(=O)C1 [edaravone, 3-methyl-1-phenyl-2-pyrazolin-5-one] | concentration at 0.083 h | 2310

====

assay: Single dose, randomized, two-period cross-over study, oral solution 140 mg vs i.v. 60 mg, plasma pharmacokinetics; type: in vivo; details: both sexes, plasma, iv; human, i.v. infusion (60 mg, 60 minutes), 6 hrs
quantityMeasured: concentration at 6 h (ng/mL)

smilesRepresentation | quantityMeasured | measurement
CC1=NN(c2ccccc2)C(=O)C1 | concentration at 6 h | 14

====

experiment: Single 60 mg dose of Radicut edaravone solution, oral and i.v. infusion, plasma pharmacokinetics in dogs; assay type: in vivo; conditions: male, beagle, iv, dog, i.v. infusion 60 mg (15 min), 4 hrs

compound | concentration at 4 h, ng/mL
CC1=NN(c2ccccc2)C(=O)C1 [edaravone, 3-methyl-1-phenyl-2-pyrazolin-5-one] | 17

====

assay: Single dose, randomized, two-period cross-over study, oral solution 140 mg vs i.v. 60 mg, plasma pharmacokinetics; type: in vivo; conditions: both sexes, plasma; human, oral administration (140 mg), 10 hrs

compound | concentration at 10 h
CC1=NN(c2ccccc2)C(=O)C1 [edaravone, 3-methyl-1-phenyl-2-pyrazolin-5-one] | 9 ng/mL

====

assay: Single dose, randomized, two-period cross-over study, oral solution 140 mg vs i.v. 60 mg, plasma pharmacokinetics; assay type: in vivo; conditions: both sexes, plasma; human, oral administration (140 mg), 0.5 hrs

smilesRepresentation | concentration at 0.5 h [ng/mL]
CC1=NN(c2ccccc2)C(=O)C1 | 1810

====

test: Single dose, randomized, two-period cross-over study, oral solution 140 mg vs i.v. 60 mg, plasma pharmacokinetics; assay type: in vivo; conditions: both sexes, plasma; human, oral administration (140 mg), 0.25 hrs

smilesRepresentation | concentration at […] [ng/mL]
CC1=NN(c2ccccc2)C(=O)C1 | 2630

====

assay: Single dose, randomized, two-period cross-over study, oral solution 140 mg vs i.v. 60 mg, plasma pharmacokinetics; assay type: in vivo; settings: both sexes, plasma; human, oral administration (140 mg), 1 hrs
quantityMeasured: concentration at 1 h (ng/mL)

smilesRepresentation | measurement
CC1=NN(c2ccccc2)C(=O)C1 | 689

====

assay: Single 60 mg dose of Radicut edaravone solution, oral and i.v. infusion, plasma pharmacokinetics in dogs; type: in vivo; details: male, beagle, iv, dog, i.v. infusion 60 mg (15 min)
quantityMeasured: Cmax (ng/mL)

smilesRepresentation | unitAnnotation | measurement
CC1=NN(c2ccccc2)C(=O)C1 | ng/mL | 4380

====

experiment: Single 60 mg dose of Radicut edaravone solution, oral and i.v. infusion, plasma pharmacokinetics in dogs; type: in vivo; conditions: male, beagle, dog, po, 60 mg, oral administration 60 mg
quantityMeasured: Tmax

smilesRepresentation | quantityMeasured | measurement
CC1=NN(c2ccccc2)C(=O)C1 | Tmax | ~5 min

====

experiment: Single 60 mg dose of Radicut edaravone solution, oral and i.v. infusion, plasma pharmacokinetics in dogs; type: in vivo; conditions: male, beagle, dog, oral administration 60 mg
quantityMeasured: AUC(0-t)

smilesRepresentation | quantityMeasured | measurement
CC1=NN(c2ccccc2)C(=O)C1 | AUC(0-t) | 542 ng·h/mL

====

experiment: Single dose, randomized, two-period cross-over study, oral solution 140 mg vs i.v. 60 mg, plasma pharmacokinetics; format: in vivo; details: both sexes, plasma; human, oral administration (140 mg), 0.17 hrs
quantityMeasured: concentration at 0.17 h (ng/mL)

smilesRepresentation | quantityMeasured | measurement
CC1=NN(c2ccccc2)C(=O)C1 | concentration at 0.17 h | 2360

====

assay: Single 60 mg dose of Radicut edaravone solution, oral and i.v. infusion, plasma pharmacokinetics in dogs; format: in vivo; details: male, beagle, iv, dog, i.v. infusion 60 mg (15 min), 10 hrs

smilesRepresentation | concentration at 10 h
CC1=NN(c2ccccc2)C(=O)C1 | 5 ng/mL

====

Experiment: Single dose, randomized, two-period cross-over study, oral solution 140 mg vs i.v. 60 mg, plasma pharmacokinetics
Format: in vivo
Details: both sexes, plasma; human, oral administration (140 mg), 1.5 hrs
Procedure: A single dose, randomized, two-period, cross-over study was conducted in 18 healthy male and female human subjects.
quantityMeasured: concentration at 1.5 h

smilesRepresentation | measurement
CC1=NN(c2ccccc2)C(=O)C1 | 354 ng/mL
